assay_comment: Intravenous and intraduodenal bioavailability of zanamivir from three formulations (Example 5)
assay_conditions: male, Sprague-Dawley, rat, in vivo, iv, 1.5 mg/animal, Plasma concentration, IV 1.5 mg/animal, Normal Saline, Ex.5; 0.5 hr; individual rats
parameter: concentration at 0.5 hr (ng/mL)
Expressed in ng/mL, but write only the number.

Q) Which value of concentration at 0.5 hr has been reported for CC(=O)NC1C(NC(=N)N)C=C(C(=O)O)OC1C(O)C(O)CO (stereo not shown) in the records?
A) 6610

====

assay_comment: Intravenous and intraduodenal bioavailability of zanamivir from three formulations (Example 5)
assay_conditions: male, Sprague-Dawley, rat, in vivo, iv, 1.5 mg, CL, IV 1.5 mg/animal, Normal Saline, Ex.5; mean
parameter: clearance (mL/min/kg)
Answer format: numeric, mL/min/kg implied, no suffix.

Q) Find the recorded clearance belonging to CC(=O)NC1C(NC(=N)N)C=C(C(=O)O)OC1C(O)C(O)CO (stereo not shown) and report it.
A) 8.17
